# Test system: PC-3 PIP/flu tumor-bearing mice
# ASSAY_COMMENT: Biodistribution in PC-3 PIP/flu tumor-bearing mice
# RECORDED_CONDITIONS: 30 min p.i., i.v.
RECORDED_METRIC: Spleen (% IA/g)

* O=C([O-])CN(CCN(CC(=O)[O-])Cc1cc(CCC(=O)NCCCCCC(=O)NCCCC[C@H](NC(=O)N[C@@H](CCC(=O)O)C(=O)O)C(=O)O)ccc1[O-])Cc1cc(CCC(=O)O)ccc1[O-].[68Ga+3] [^68Ga-PSMA-11] | 4.76
* O=C([O-])CN1CCN(CC(=O)[O-])CCN(CC(=O)NCC2CCC(C(=O)NC(Cc3ccc4ccccc4c3)C(=O)NCCCCC(NC(=O)NC(CCC(=O)O)C(=O)O)C(=O)O)CC2)CCN(CC(=O)[O-])CC1.[68Ga+3] (stereo not shown) [^68Ga-PSMA-617] | 2.50
* O=C([O-])CN1CCN(CC(=O)[O-])CCN(CC(=O)NCC2CCC(C(=O)N[C@@H](Cc3ccc4ccccc4c3)C(=O)NCCCC[C@H](NC(=O)N[C@@H](CCC(=O)O)C(=O)O)C(=O)O)CC2)CCN(CC(=O)[O-])CC1.[177Lu+3] (stereo partly shown) [^177Lu-PSMA-617] | 1.55
* O=C([O-])CN1CCN(CC(=O)[O-])CCN(CC(=O)NCC2CCC(C(=O)NC(Cc3ccc4ccccc4c3)C(=O)NCCCCC(NC(=O)NC(CCC(=O)O)C(=O)O)C(=O)O)CC2)CCN(CC(=O)[O-])CC1.[44Sc+3] (stereo not shown) [^44Sc-PSMA-617] | 2.20

Just for reference, paper PMC5247395 is where these values come from.
